system: 697B cells, BCR-induced NF-kB luciferase reporter luminescence; assay: inhibitors of BCR-induced NF-kB activation, dose response, 697B cells, luciferase luminescence (AID 489023)
The source made the active and inactive calls. The rule behind the calls is not given here.
Classes used: TRUE for active, FALSE for inactive

>  <molecule>
COc1ccc(-c2nsc(SCC(=O)Nc3cc(C)on3)n2)cc1

>  <assigned-category>
FALSE

$$$$
>  <molecule>
O=C(CCl)Nc1ccccc1Sc1ccccc1

>  <assigned-category>
TRUE

$$$$
>  <molecule>
O=C(CCl)N1CCN(S(=O)(=O)c2ccc3c(c2)CCC3)CC1

>  <assigned-category>
TRUE

$$$$
>  <molecule>
O=C(C1CCC1)N1CCN(S(=O)(=O)c2ccc([N+](=O)[O-])cc2)CC1

>  <assigned-category>
FALSE

$$$$
>  <molecule>
CC1(C)CC2CC(C)(CN2S(=O)(=O)c2ccc(C(=O)Nc3ccc(S(=O)(=O)N4CCOCC4)cc3)cc2)C1 (configuration not stated)

>  <assigned-category>
FALSE

$$$$
>  <molecule>
Cc1nn(-c2ccc(N3CCCCC3)nn2)c(C)c1CCC(=O)Nc1ccccc1F

>  <assigned-category>
FALSE

$$$$
>  <molecule>
O=C(CCCN1C(=O)/C(=C/c2ccccc2Cl)SC1=S)NNC(=O)c1ccncc1

>  <assigned-category>
FALSE

$$$$
>  <molecule>
O=C(CCCN1C(=O)/C(=C/c2ccccc2Cl)SC1=S)NNC(=O)c1ccc(Cl)cc1

>  <assigned-category>
FALSE

$$$$
>  <molecule>
COc1ccc(/C=C2\SC(=S)N(CCC(=O)Nc3ccc(C(=O)O)cc3)C2=O)cc1OC

>  <assigned-category>
FALSE

$$$$
>  <molecule>
Cc1cc(=O)[nH]c2c(C)cc(S(=O)(=O)N3CCCCC3)cc12

>  <assigned-category>
FALSE

$$$$
>  <molecule>
Cc1ccc(-c2nc(C(=O)NCC3CCCO3)cc3c2[nH]c2ccccc23)cc1 (configuration not stated)

>  <assigned-category>
TRUE

$$$$
>  <molecule>
Cc1cc(C)c(S(=O)(=O)NCc2ccncc2)c(C)c1

>  <assigned-category>
FALSE

$$$$
>  <molecule>
CC1CC(C)CN(S(=O)(=O)c2ccc(C(=O)NCCCn3ccnc3)cc2)C1 (configuration not stated)

>  <assigned-category>
TRUE

$$$$
>  <molecule>
Cn1c(=O)n(C)c2cc(/C=C3/NC(=O)N(Cc4ccccc4)C3=O)ccc21

>  <assigned-category>
FALSE

$$$$
>  <molecule>
COC(=O)c1[nH]c2ccc(C)cc2c1NC(=O)Nc1ccccc1OC

>  <assigned-category>
FALSE

$$$$
>  <molecule>
N#Cc1ccccc1COc1ccc(/C=C/C(=O)O)cc1

>  <assigned-category>
TRUE

$$$$
>  <molecule>
CN(C)CCCN=Cc1c(-c2ccccc2)[nH]n(-c2nc3ccccc3s2)c1=O

>  <assigned-category>
TRUE

$$$$
>  <molecule>
Cc1nc2cc(-c3cccc(F)c3)nn2c(C)c1CCC(=O)N1CCC2(CC1)OCCO2

>  <assigned-category>
FALSE

$$$$
>  <molecule>
CCc1ccc(/C=C2\SC(=S)N(CCC(=O)Nc3cc(C)on3)C2=O)cc1

>  <assigned-category>
TRUE

$$$$
>  <molecule>
COc1cccc(-c2noc(CCC(=O)NCCc3ccccc3)n2)c1

>  <assigned-category>
TRUE

$$$$
>  <molecule>
O=C1CCCc2c1[nH]c1ccc(CN3CCCCC3)cc21

>  <assigned-category>
FALSE

$$$$
>  <molecule>
Cc1cc(OCC(=O)N2CCC(C(N)=O)CC2)c2c3c(c(=O)oc2c1)CCCC3

>  <assigned-category>
FALSE

$$$$
>  <molecule>
COc1ccc(C(C(=O)NC2CCCCC2)N(C(=O)CCl)c2ccc(Cl)cc2)cc1 (configuration not stated)

>  <assigned-category>
TRUE

$$$$
>  <molecule>
COC(=O)c1c(-c2ccc(N(C)C)cc2)sc2ccc(OC)cc12

>  <assigned-category>
FALSE

$$$$
>  <molecule>
Cc1c(CCO)c(=O)oc2n[nH]c(-c3ccccc3)c12

>  <assigned-category>
TRUE

$$$$
>  <molecule>
COc1ccc2nc(C)cc(Sc3nc4ccccc4s3)c2c1

>  <assigned-category>
TRUE

$$$$
>  <molecule>
CCCN1C(=O)/C(=C/c2c(N3CCNC(=O)C3CC(=O)OCC)nc3c(C)cccn3c2=O)SC1=S (configuration not stated)

>  <assigned-category>
TRUE

$$$$
>  <molecule>
Cc1ccc(Nc2nc(N/N=C\c3ccc4c(c3)OCO4)nc(N3CCOCC3)n2)cc1

>  <assigned-category>
TRUE

$$$$
>  <molecule>
ClCc1nnc(-c2ccccc2)o1

>  <assigned-category>
TRUE

$$$$
>  <molecule>
CCN1CCN(C(=O)CSc2cc(=O)n(CC)c3ccccc23)CC1

>  <assigned-category>
FALSE

$$$$
>  <molecule>
Cc1nc2cc(-c3ccccc3)nn2c(C)c1CCC(=O)N1CCC2(CC1)OCCO2

>  <assigned-category>
FALSE

$$$$
>  <molecule>
CCOc1ccc(-n2c(SCC(=O)Nc3ccc4c(c3)OCCO4)nc3c(c2=O)SCC3)cc1

>  <assigned-category>
TRUE

$$$$
>  <molecule>
CCOC(=O)Cc1csc(NC(=S)NC(=O)c2ccc(C)cc2)n1

>  <assigned-category>
TRUE

$$$$
>  <molecule>
O=C(NNC(=O)c1ccccc1O)c1ccc(Cl)c(S(=O)(=O)N2CCc3ccccc32)c1

>  <assigned-category>
FALSE

$$$$
>  <molecule>
CCOc1ccc(-c2nc(CSCC(=O)NC3CC3)c(C)o2)cc1

>  <assigned-category>
TRUE

$$$$
>  <molecule>
CCN1C(=O)c2cccc3c(NC(=O)c4cccc(N5C(=O)CCC5=O)c4)ccc1c23

>  <assigned-category>
FALSE

$$$$
>  <molecule>
O=C(O)CCSc1ncnc2sc(-c3ccccc3)cc12

>  <assigned-category>
TRUE

$$$$
>  <molecule>
COc1ccc(/C=N/OCC(=O)NC(c2ccccc2)c2ccccc2)cc1OC

>  <assigned-category>
FALSE

$$$$
>  <molecule>
CN1CCN(C(=O)c2ccccc2N(Cc2ccccc2)S(=O)(=O)c2ccccc2)CC1

>  <assigned-category>
FALSE

$$$$
>  <molecule>
C=C1C(=O)[C@@]23C[C@H]4[C@@H]5[C@@]6(C)CCC[C@@]57[C@@H]2[C@@H](O)[C@@H]1C[C@H]3[C@H]7N4C6

>  <assigned-category>
TRUE

$$$$
>  <molecule>
Cc1cc(C)c(CN2CCN(C(=O)Cn3cnc4c(NCc5ccccc5)ncnc43)CC2)c(C)c1

>  <assigned-category>
FALSE

$$$$
>  <molecule>
Cc1cc(-c2cc(C(=O)NCc3ccccc3)on2)nc(S(C)(=O)=O)n1

>  <assigned-category>
TRUE

$$$$
